ASSAY_OVERVIEW: Acute toxicity (LD50), single intravenous dose, species not stated
EXPERIMENTAL_CONDITIONS: in vivo
PROPERTY_LABEL: LD50 (mg/kg)
# unit: mg/kg | format: bare number

# LD50 lookup, item O=P1(N(CCCl)CCCl)NCCCO1 (stereo not shown) [cyclophosphamide] 244
